All figures here come from paper PMC7153038.

- study-system: integrin αvβ3 (Homo sapiens, UniProt P05106+P06756)
- Sequence (P06756 31-889 limits assumed): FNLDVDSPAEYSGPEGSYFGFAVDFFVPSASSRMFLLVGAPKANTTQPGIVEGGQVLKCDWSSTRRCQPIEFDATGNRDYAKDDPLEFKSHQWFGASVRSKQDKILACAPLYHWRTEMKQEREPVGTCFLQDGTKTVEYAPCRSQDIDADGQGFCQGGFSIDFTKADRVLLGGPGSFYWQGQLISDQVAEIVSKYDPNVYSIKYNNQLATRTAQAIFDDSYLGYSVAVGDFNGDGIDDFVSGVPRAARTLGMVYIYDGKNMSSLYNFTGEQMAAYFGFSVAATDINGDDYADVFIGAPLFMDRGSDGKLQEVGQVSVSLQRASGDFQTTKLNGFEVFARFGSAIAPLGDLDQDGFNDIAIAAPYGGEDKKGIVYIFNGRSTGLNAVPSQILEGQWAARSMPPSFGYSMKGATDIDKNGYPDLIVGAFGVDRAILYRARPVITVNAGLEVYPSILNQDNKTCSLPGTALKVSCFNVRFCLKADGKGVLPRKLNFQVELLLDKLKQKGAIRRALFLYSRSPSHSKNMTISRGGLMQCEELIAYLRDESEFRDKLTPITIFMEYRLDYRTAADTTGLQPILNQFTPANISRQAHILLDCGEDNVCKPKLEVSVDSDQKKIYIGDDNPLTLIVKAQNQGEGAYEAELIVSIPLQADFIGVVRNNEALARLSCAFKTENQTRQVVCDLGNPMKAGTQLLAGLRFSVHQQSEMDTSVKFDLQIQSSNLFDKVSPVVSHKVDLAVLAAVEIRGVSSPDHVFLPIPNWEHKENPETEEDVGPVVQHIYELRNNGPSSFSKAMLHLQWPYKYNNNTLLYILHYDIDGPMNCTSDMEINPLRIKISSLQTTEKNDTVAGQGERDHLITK
- Sequence (P06756 891-1048 partner limits assumed): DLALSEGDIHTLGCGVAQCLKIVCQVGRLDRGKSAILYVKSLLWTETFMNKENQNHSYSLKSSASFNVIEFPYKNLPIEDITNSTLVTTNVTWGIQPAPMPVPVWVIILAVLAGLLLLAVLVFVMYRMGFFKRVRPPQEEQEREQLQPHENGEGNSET
- Sequence (P05106 27-788): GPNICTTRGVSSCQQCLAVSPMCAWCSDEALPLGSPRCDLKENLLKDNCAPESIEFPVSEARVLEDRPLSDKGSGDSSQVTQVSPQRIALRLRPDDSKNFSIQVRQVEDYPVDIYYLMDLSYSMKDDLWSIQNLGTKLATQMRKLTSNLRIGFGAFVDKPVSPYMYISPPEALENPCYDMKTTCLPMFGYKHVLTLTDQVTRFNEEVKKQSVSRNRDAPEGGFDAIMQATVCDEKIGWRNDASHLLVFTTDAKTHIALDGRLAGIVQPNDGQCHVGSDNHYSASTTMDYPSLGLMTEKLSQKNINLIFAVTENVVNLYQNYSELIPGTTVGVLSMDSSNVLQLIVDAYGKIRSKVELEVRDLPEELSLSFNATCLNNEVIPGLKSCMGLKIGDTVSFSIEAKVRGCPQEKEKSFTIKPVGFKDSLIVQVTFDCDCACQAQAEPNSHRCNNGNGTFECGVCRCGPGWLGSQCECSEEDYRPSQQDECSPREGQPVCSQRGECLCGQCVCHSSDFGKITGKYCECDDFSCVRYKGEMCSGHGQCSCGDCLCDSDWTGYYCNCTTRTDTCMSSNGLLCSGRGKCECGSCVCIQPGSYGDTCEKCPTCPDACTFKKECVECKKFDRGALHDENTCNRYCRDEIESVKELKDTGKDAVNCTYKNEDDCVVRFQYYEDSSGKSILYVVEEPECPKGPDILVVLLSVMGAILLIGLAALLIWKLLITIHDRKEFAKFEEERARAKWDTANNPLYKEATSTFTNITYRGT
- test-protocol: integrin αvβ3-mediated cell attachment to ligand
- Assay type: cell-based
- condition-info: mean and SD, at least 3 independent assays; listed as CWHM−12; read-out: IC50, inhibition of αvβ3-mediated cell attachment
- Method: The RGD peptidomimetic CWHM‐12 was synthesized as described in detail previously (Henderson et al., 2013). A close structural analog of this compound with improved oral bioavailability, CWHM‐680, was also synthesized at Saint Louis University. Potency for the compounds in blocking cell attachment mediated by integrins αvβ3, αvβ5, and αvβ6 was measured as previously described (Henderson et al., 2013). […]
pIC50: −log10 of the molar value.
measurement-label: pIC50

molecule	study-system	recorded-number
CC(C)(C)c1cc(Br)cc([C@H](CC(=O)O)NC(=O)CNC(=O)c2cc(O)cc(NC3=NCC(O)CN3)c2)c1 (stereo partly shown)	integrin αvβ3 (Homo sapiens, UniProt P05106+P06756)	9.33

###

- study-system: integrin αvβ6 (Homo sapiens, UniProt P06756+P18564)
- Sequence (P06756 31-889 limits assumed): as the sequence (P06756 31-889 limits assumed) above
- Sequence (P06756 891-1048 partner limits assumed): as the sequence (P06756 891-1048 partner limits assumed) above
- Sequence (P18564 22-788): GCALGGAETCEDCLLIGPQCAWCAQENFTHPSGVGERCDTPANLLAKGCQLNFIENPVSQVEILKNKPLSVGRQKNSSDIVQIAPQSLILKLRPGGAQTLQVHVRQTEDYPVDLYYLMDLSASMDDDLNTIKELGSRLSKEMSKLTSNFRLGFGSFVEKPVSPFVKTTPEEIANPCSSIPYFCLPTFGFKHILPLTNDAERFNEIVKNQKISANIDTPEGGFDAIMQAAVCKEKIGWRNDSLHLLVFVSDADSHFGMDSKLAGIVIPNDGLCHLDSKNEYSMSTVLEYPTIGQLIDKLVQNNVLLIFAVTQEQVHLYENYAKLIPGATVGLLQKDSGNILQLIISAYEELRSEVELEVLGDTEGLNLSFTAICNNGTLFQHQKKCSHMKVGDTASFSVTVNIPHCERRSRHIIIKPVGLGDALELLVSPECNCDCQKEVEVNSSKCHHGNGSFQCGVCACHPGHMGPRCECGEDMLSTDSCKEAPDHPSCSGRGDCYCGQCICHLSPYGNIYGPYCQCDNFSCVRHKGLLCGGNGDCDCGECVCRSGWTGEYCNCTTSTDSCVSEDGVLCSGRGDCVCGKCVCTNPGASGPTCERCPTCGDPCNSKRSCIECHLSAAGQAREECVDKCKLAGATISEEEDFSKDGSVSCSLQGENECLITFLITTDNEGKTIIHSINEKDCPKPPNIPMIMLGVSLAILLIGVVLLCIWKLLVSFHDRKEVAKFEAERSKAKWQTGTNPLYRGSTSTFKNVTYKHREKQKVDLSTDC
- test-protocol: integrin αvβ6-mediated cell attachment to ligand
- Type: cell-based
- condition-info: mean and SD, at least 3 independent assays; read-out: IC50, inhibition of αvβ6-mediated cell attachment
measurement-label: IC50

molecule	study-system	measurement-label	result
CC(C)(C)c1cc(Br)cc([C@H](CC(=O)O)NC(=O)CNC(=O)c2cc(O)cc(NC3=NCC(O)CN3)c2)c1 (stereo partly shown)	integrin αvβ6 (Homo sapiens, UniProt P06756+P18564)	IC50	< 1 nM

###

- study-system: integrin α5β1 (Homo sapiens, UniProt P05556+P08648)
- Construct: K562 cells, which naturally express this integrin; endogenous in cells
- Sequence (P08648 42-894 limits assumed): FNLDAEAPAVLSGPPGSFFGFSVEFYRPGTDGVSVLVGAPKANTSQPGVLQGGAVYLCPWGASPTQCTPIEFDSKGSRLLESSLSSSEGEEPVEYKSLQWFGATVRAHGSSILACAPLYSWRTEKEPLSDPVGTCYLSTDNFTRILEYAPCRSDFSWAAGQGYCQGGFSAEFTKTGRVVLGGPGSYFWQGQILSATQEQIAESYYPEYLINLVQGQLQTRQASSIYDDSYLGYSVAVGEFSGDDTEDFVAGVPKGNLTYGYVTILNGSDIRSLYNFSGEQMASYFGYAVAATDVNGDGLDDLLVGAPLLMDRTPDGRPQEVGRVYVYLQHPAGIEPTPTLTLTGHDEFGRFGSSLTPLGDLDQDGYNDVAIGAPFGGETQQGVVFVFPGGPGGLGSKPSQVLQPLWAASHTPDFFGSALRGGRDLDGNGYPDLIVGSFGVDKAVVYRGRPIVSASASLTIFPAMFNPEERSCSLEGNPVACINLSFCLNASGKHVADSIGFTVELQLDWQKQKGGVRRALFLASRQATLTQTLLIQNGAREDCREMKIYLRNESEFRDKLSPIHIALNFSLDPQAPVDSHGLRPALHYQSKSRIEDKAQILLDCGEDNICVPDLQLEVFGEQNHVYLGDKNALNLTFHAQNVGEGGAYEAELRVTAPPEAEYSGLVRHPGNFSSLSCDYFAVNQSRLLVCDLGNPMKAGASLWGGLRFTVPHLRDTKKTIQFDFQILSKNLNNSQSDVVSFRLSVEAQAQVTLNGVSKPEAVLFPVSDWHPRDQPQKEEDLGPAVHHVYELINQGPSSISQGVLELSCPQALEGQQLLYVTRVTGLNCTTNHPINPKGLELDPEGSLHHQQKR
- Sequence (P08648 895-1049 partner limits assumed): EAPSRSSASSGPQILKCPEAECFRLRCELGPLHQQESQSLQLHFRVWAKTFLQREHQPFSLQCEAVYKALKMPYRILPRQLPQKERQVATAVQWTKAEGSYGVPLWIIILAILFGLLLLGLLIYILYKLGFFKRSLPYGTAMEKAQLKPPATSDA
- Sequence (P05556 21-798): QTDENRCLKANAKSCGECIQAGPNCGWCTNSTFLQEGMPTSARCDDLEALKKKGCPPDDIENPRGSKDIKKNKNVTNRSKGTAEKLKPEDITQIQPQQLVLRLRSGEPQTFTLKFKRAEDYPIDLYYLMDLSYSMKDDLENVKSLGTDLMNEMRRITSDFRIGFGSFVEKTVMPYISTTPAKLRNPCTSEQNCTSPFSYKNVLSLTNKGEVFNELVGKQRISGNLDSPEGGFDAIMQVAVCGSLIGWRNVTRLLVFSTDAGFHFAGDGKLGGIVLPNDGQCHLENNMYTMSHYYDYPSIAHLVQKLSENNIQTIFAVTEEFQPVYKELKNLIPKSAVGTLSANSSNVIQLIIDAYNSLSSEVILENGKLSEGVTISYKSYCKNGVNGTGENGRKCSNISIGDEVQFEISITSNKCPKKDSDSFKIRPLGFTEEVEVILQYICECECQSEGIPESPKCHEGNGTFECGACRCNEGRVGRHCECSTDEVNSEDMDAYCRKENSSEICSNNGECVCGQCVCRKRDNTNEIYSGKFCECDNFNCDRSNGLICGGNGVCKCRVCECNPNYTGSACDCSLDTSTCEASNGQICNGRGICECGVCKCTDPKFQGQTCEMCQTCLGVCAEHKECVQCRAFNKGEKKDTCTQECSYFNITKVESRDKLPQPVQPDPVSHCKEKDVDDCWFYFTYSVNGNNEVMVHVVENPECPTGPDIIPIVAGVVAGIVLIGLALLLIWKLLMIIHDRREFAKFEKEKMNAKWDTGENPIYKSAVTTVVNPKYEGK
- test-protocol: integrin α5β1-mediated attachment of K562 cells to human plasma fibronectin
- condition-info: mean and SD, at least 3 independent assays, read-out: IC50, inhibition of α5β1-mediated cell attachment
pIC50: −log10 of the molar value.

molecule	pIC50
CC(C)(C)c1cc(Br)cc([C@H](CC(=O)O)NC(=O)CNC(=O)c2cc(O)cc(NC3=NCC(O)CN3)c2)c1 (stereo partly shown) [CWHM‐12]	8.10
